System: LXRa:RXRa (NR concentration 270 nM, RXRa partner concentration 90 nM)
PROTOCOL TEXT: PBM binding z-score (relative to random genomic background probes); higher = stronger binding; sequences stand for … in GC…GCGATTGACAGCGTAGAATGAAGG
For each entry below, report its PBM binding z-score value.

*Q* Fill in: PBM binding z-score of "CCTACTGGGACAAAGGTCATTGATTCCAATGCTC" is ___
*A* 5.21

*Q* Same read-out for "CCGAGTTGGTTATGGGGCATTCAGGCAACGGTGA" ?
*A* 0.0147

*Q* Consider next the sequence "CCTAGCAGGCCAATCTGGGTCAATCAAGGCTTGA" in the same way.
*A* 1.22

*Q* Would you kindly repeat that for "CAGCCTACGTCAGGGCCAGTATAGGAGGAACGTT" ?
*A* -0.664

*Q* Try the sequence "GGAACGAGGGCATTCGAGTTGAAAGCATGGCGAT"
*A* 2.67

*Q* Same read-out for "AGTCAAAGTTCAGGACGAGGTAACGTCAAGCACG" ?
*A* 3.98

*Q* Now this one: "CCTACTGGGCGATCAGGTCATTGATATCAACGTT"
*A* 0.548

*Q* // same read-out, input: "AGAATGAGGTTATACGTGGATCAGGGAAGAAAGT"
*A* 2.03

*Q* Follow-up item: "CTTAGCAGGCCAATCTGGGTCACTCAAGGCTTGA"
*A* 1.18

*Q* // next record "TCGAGTAGGTTAGTCGGCGCATTCAGCCAACATA"
*A* -0.169

*Q* Next sequence up: "ACTCAAAGTTCACTAGGTAACGTAAGATTCAGCT"
*A* 5.16

*Q* Also check "TCTTGTAGATCAATAGAGGTTAAGAATGTGCGCT"
*A* 2.14

*Q* Same question, "CGTCAAAGTTCAAGTAAGGTAACGTAAAGCACGC" this time
*A* 6.43

*Q* Likewise for "TAGCCTAGGTCATTCAGGGACCAGTATAGAAAGC" ?
*A* 3.39

*Q* Follow-up entry: "CAAACTAGGTCACCGGAAGGTCAAAGTGCGCATG"
*A* 6.25

*Q* Let us now turn to "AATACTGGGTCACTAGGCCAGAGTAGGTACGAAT"
*A* 1.69

*Q* Same for "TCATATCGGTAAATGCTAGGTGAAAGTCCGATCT"
*A* 0.361

*Q* Same question, "GCGTATAGGTAATACAAGGTGAAAGTCCGATTGT" this time
*A* 2.57

*Q* Try the sequence "CAAACTAGGTCACCGGAAGGTCAAAGGCCGCATG"
*A* 5.81

*Q* Try this sequence too: "CCTACTGGGCCAAAGTTCATTGATTCCAATGCTC"
*A* 3.36

*Q* Query "TAGCCTCGGTCATGGGCCAGTATACCACGCGAAC" next
*A* 0.687

*Q* Consider next the sequence "CGAACTAGGGCAAGGACAGTGAATCTCCGCACGC" in the same way.
*A* -0.366

*Q* // next record "CCTAGCAGGCCAGGGTCACTAAAGCATTTCGCTT"
*A* 1.59

*Q* Queued: "CCTGCTAGGTCAATGGTTAGCTAAAGCAGCTCGC"
*A* 1.76

*Q* What would you report for "ATCGAAAGGTCGTGAGGTGAGCATACAGAAAGGC" ?
*A* 3.62

*Q* Moving on to the next sequence: "ACTTACGGGTCAACGAGGTTGTAGCACGCGTATA"
*A* 4.66
